- experimentalSetup: Subject S-014; metabolites as % of dose of parent MeIQx or PhIP
Each record is given YES if its reported % Dose in urine collected for 10 h after consumption of cooked beef is strictly below 2 % Dose. Records at or above 2 % Dose are given NO.

compound: Cc1cnc2ccc3c(nc(N)n3C)c2n1
className: NO
//
compound: Cn1c(=NO)n([C@@H]2O[C@H](C(=O)O)[C@@H](O)[C@H](O)[C@H]2O)c2ncc(-c3ccccc3)cc21
className: YES
//
compound: Cn1c(N)nc2ncc(-c3ccc(O)cc3)cc21
className: YES
//
compound: Cn1c(N(O)[C@@H]2O[C@H](C(=O)O)[C@@H](O)[C@H](O)[C@H]2O)nc2ncc(-c3ccccc3)cc21
className: NO
//
compound: Cn1c(N)nc2ncc(-c3ccccc3)cc21
className: YES

* * *

- experimentalSetup: Subject S-001; Mean ± SD of 3 independent measurements
Each record is given satisfied if its reported Amount in urine collected for 10 h after consumption of cooked beef is strictly below 80 ng. Records at or above 80 ng are given not satisfied.

compound: Cn1c(N)nc2ncc(-c3ccccc3)cc21 [PhIP]
className: satisfied

compound: Cn1c(N)nc2ncc(-c3ccc(O)cc3)cc21 [4'-HO-PhIP]
className: satisfied

compound: Cn1c(=NO)n([C@@H]2O[C@H](C(=O)O)[C@@H](O)[C@H](O)[C@H]2O)c2ncc(-c3ccccc3)cc21 [HONH-PhIP-N3-GI]
className: not satisfied

compound: Cn1c(N(O)[C@@H]2O[C@H](C(=O)O)[C@@H](O)[C@H](O)[C@H]2O)nc2ncc(-c3ccccc3)cc21 [HONH-PhIP-N^2-GI]
className: not satisfied

* * *

- experimentalSetup: Subject S-008; metabolites as % of dose of parent MeIQx or PhIP
Each entry below lists one item and its recorded % Dose in urine collected for 10 h after consumption of cooked beef value.
propertyMeasured: % Dose in urine collected for 10 h after consumption of cooked beef

molecule: Cn1c(N)nc2ncc(-c3ccccc3)cc21 [PhIP]
observedResult: 0.2 % Dose
//
molecule: Cn1c(N(O)[C@@H]2O[C@H](C(=O)O)[C@@H](O)[C@H](O)[C@H]2O)nc2ncc(-c3ccccc3)cc21 [HONH-PhIP-N^2-GI]
observedResult: 24.3 % Dose
//
molecule: Cn1c(=NO)n([C@@H]2O[C@H](C(=O)O)[C@@H](O)[C@H](O)[C@H]2O)c2ncc(-c3ccccc3)cc21 [HONH-PhIP-N3-GI]
observedResult: 2.5 % Dose
//
molecule: Cn1c(N)nc2ncc(-c3ccc(O)cc3)cc21 [4'-HO-PhIP]
observedResult: 0.5 % Dose
//
molecule: Cc1cnc2ccc3c(nc(N)n3C)c2n1 [MeIQx]
observedResult: 3.7 % Dose

* * *

Each entry below lists one item and its recorded Amount in urine collected for 10 h after consumption of cooked beef value.
- experimentalSetup: Subject S-008; Mean ± SD of 3 independent measurements
propertyMeasured: Amount in urine collected for 10 h after consumption of cooked beef (ng)

compound: Cc1cnc2ccc3c(nc(N)n3C)c2n1
observedResult: 33.8
--
compound: Cn1c(=NO)n([C@@H]2O[C@H](C(=O)O)[C@@H](O)[C@H](O)[C@H]2O)c2ncc(-c3ccccc3)cc21
observedResult: 222
--
compound: Cn1c(N)nc2ncc(-c3ccccc3)cc21
observedResult: 9.5
--
compound: Cn1c(N)nc2ncc(-c3ccc(O)cc3)cc21
observedResult: 27.0
--
compound: Cn1c(N(O)[C@@H]2O[C@H](C(=O)O)[C@@H](O)[C@H](O)[C@H]2O)nc2ncc(-c3ccccc3)cc21
observedResult: 2198

* * *

- experimentalSetup: Subject S-005; Mean ± SD of 3 independent measurements
propertyMeasured: Amount in urine collected for 10 h after consumption of cooked beef (ng)

compound: Cn1c(N)nc2ncc(-c3ccccc3)cc21
observedResult: 11.4
//
compound: Cn1c(=NO)n([C@@H]2O[C@H](C(=O)O)[C@@H](O)[C@H](O)[C@H]2O)c2ncc(-c3ccccc3)cc21
observedResult: 176
//
compound: Cc1cnc2ccc3c(nc(N)n3C)c2n1
observedResult: 32.4
//
compound: Cn1c(N)nc2ncc(-c3ccc(O)cc3)cc21
observedResult: 41.7
//
compound: Cn1c(N(O)[C@@H]2O[C@H](C(=O)O)[C@@H](O)[C@H](O)[C@H]2O)nc2ncc(-c3ccccc3)cc21
observedResult: 2112

* * *

Each entry below lists one item and its recorded % Dose in urine collected for 10 h after consumption of cooked beef value.
- experimentalSetup: Subject S-015; metabolites as % of dose of parent MeIQx or PhIP
propertyMeasured: % Dose in urine collected for 10 h after consumption of cooked beef (% Dose)

compound: Cn1c(N)nc2ncc(-c3ccccc3)cc21
valueUnit: % Dose
observedResult: 0.2

compound: Cc1cnc2ccc3c(nc(N)n3C)c2n1
valueUnit: % Dose
observedResult: 4.2

compound: Cn1c(N)nc2ncc(-c3ccc(O)cc3)cc21
valueUnit: % Dose
observedResult: 0.3

compound: Cn1c(N(O)[C@@H]2O[C@H](C(=O)O)[C@@H](O)[C@H](O)[C@H]2O)nc2ncc(-c3ccccc3)cc21
valueUnit: % Dose
observedResult: 22.8

compound: Cn1c(=NO)n([C@@H]2O[C@H](C(=O)O)[C@@H](O)[C@H](O)[C@H]2O)c2ncc(-c3ccccc3)cc21
valueUnit: % Dose
observedResult: 2.4

* * *

- experimentalSetup: Subject S-003; Mean ± SD of 3 independent measurements
propertyMeasured: Amount in urine collected for 10 h after consumption of cooked beef (ng)

compound: Cn1c(N(O)[C@@H]2O[C@H](C(=O)O)[C@@H](O)[C@H](O)[C@H]2O)nc2ncc(-c3ccccc3)cc21 [HONH-PhIP-N^2-GI]
valueUnit: ng
observedResult: 2692

compound: Cn1c(N)nc2ncc(-c3ccccc3)cc21 [PhIP]
valueUnit: ng
observedResult: 6.5

compound: Cc1cnc2ccc3c(nc(N)n3C)c2n1 [MeIQx]
valueUnit: ng
observedResult: 26.7

compound: Cn1c(N)nc2ncc(-c3ccc(O)cc3)cc21 [4'-HO-PhIP]
valueUnit: ng
observedResult: 35.0

compound: Cn1c(=NO)n([C@@H]2O[C@H](C(=O)O)[C@@H](O)[C@H](O)[C@H]2O)c2ncc(-c3ccccc3)cc21 [HONH-PhIP-N3-GI]
valueUnit: ng
observedResult: 189

* * *

- experimentalSetup: Subject S-003; metabolites as % of dose of parent MeIQx or PhIP
Each entry below lists one item and its recorded % Dose in urine collected for 10 h after consumption of cooked beef value.
propertyMeasured: % Dose in urine collected for 10 h after consumption of cooked beef (% Dose)

compound: Cn1c(N)nc2ncc(-c3ccc(O)cc3)cc21
observedResult: 0.7
--
compound: Cn1c(=NO)n([C@@H]2O[C@H](C(=O)O)[C@@H](O)[C@H](O)[C@H]2O)c2ncc(-c3ccccc3)cc21
observedResult: 2.1
--
compound: Cc1cnc2ccc3c(nc(N)n3C)c2n1
observedResult: 2.9
--
compound: Cn1c(N)nc2ncc(-c3ccccc3)cc21
observedResult: 0.1
--
compound: Cn1c(N(O)[C@@H]2O[C@H](C(=O)O)[C@@H](O)[C@H](O)[C@H]2O)nc2ncc(-c3ccccc3)cc21
observedResult: 29.7

* * *

- experimentalSetup: Subject S-009; metabolites as % of dose of parent MeIQx or PhIP
Each entry below lists one item and its recorded % Dose in urine collected for 10 h after consumption of cooked beef value.
propertyMeasured: % Dose in urine collected for 10 h after consumption of cooked beef (% Dose)

compound: Cn1c(=NO)n([C@@H]2O[C@H](C(=O)O)[C@@H](O)[C@H](O)[C@H]2O)c2ncc(-c3ccccc3)cc21 [HONH-PhIP-N3-GI]
valueUnit: % Dose
observedResult: 2.1
//
compound: Cn1c(N)nc2ncc(-c3ccccc3)cc21 [PhIP]
valueUnit: % Dose
observedResult: 0.4
//
compound: Cn1c(N)nc2ncc(-c3ccc(O)cc3)cc21 [4'-HO-PhIP]
valueUnit: % Dose
observedResult: 0.5
//
compound: Cc1cnc2ccc3c(nc(N)n3C)c2n1 [MeIQx]
valueUnit: % Dose
observedResult: 5.0
//
compound: Cn1c(N(O)[C@@H]2O[C@H](C(=O)O)[C@@H](O)[C@H](O)[C@H]2O)nc2ncc(-c3ccccc3)cc21 [HONH-PhIP-N^2-GI]
valueUnit: % Dose
observedResult: 22.2

* * *

- experimentalSetup: Subject S-009; Mean ± SD of 3 independent measurements
Each record is given met if its reported Amount in urine collected for 10 h after consumption of cooked beef is strictly below 50 ng. Records at or above 50 ng are given not met.

compound: Cn1c(N(O)[C@@H]2O[C@H](C(=O)O)[C@@H](O)[C@H](O)[C@H]2O)nc2ncc(-c3ccccc3)cc21
className: not met

compound: Cn1c(N)nc2ncc(-c3ccccc3)cc21
className: met

compound: Cn1c(N)nc2ncc(-c3ccc(O)cc3)cc21
className: met

compound: Cn1c(=NO)n([C@@H]2O[C@H](C(=O)O)[C@@H](O)[C@H](O)[C@H]2O)c2ncc(-c3ccccc3)cc21
className: not met

compound: Cc1cnc2ccc3c(nc(N)n3C)c2n1
className: met
